assayedSystem: human B1R (bradykinin receptor 1) (Homo sapiens, UniProt P46663)
Construct: expressed in transfected cells; host or cells: CHO K1 cells
Sequence (P46663 whole entry): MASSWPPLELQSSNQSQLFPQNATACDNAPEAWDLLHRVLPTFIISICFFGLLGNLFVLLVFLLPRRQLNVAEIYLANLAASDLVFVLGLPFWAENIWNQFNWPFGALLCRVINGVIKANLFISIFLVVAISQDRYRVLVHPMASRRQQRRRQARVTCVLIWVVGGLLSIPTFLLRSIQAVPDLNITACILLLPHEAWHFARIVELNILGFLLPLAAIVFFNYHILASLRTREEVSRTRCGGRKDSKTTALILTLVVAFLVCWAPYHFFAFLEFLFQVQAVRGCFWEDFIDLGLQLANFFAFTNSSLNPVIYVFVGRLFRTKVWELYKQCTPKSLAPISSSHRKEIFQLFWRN
assayOverview: FLIPR Ca2+ assay (Fluo-4) on CHO K1 cells stably transfected with the human B1R gene (hB1R cells): % inhibition at 10 μM / IC50, agonist Lys-Des-Arg9-bradykinin
Type: cell-based
conditionDetails: CHO-K1, human B1R
Measured inhibition at 10 µM accompanies every entry in the list below.
Response body: numeric value in %, unit text excluded.

Entry CN(C(=O)c1sccc1Cl)C1CCc2ccc(C(=O)N3CCC4(CC3)CCN(c3ccncc3)CC4)cc21 (centres unmarked) has what inhibition at 10 µM?
100

Bench note: what inhibition at 10 µM did Cc1cccc(C)c1C(=O)NC1CCc2ccc(C(=O)N3CCC4(CC3)CCN(c3ccncc3)C4)cc21 (centres unmarked) show?
96

Param item = O=C(NC1CCc2ccc(C(=O)N3CCC4(CCN(c5ccncc5)CC4)C3)cc21)c1c(Cl)cccc1Cl (centres unmarked) ; retrieve measured inhibition at 10 µM.
100

Need inhibition at 10 µM of CN(C(=O)c1ccccn1)C1CCc2ccc(C(=O)N3CCC4(CC3)CCN(c3ccncc3)CC4)cc21 (centres unmarked) , thanks.
93

Value lookup for inhibition at 10 µM; key = O=C(NC1CCc2ccc(C(=O)N3CCC4(CC3)CCN(c3ccncc3)CC4)cc21)c1cccc(C(F)(F)F)c1Cl (centres unmarked)
96

Sample O=C(N[C@@H]1CCc2cc(F)c(C(=O)N3CCC4(CC3)CCN(c3ccncc3)CC4)cc21)c1ccccc1Cl — what was its inhibition at 10 µM?
100

Which measured inhibition at 10 µM value corresponds to O=C(NC1CCc2ccc(C(=O)N3CCC4(CCN(c5ccc6cnccc6c5)CC4)C3)cc21)c1ccccc1Cl (centres unmarked) ?
98

Look at this compound and give its reported inhibition at 10 µM. O=C(NC1CCc2ccc(C(=O)N3CCC4(CC3)CCN(c3ccncc3)CC4)cc21)c1ccccn1 (centres unmarked)
97

Quick check: inhibition at 10 µM of O=C(c1ccc2c(c1)C(NS(=O)(=O)Cc1ccccc1C(F)(F)F)CC2)N1CCC2(CCN(c3ccncc3)CC2)C1 (centres unmarked) ?
100

Param item = O=C(NC1CCc2ccc(C(=O)N3CCC4(CCC(c5ccncc5)CC4)C3)cc21)c1ccccc1Cl (centres unmarked) ; retrieve measured inhibition at 10 µM.
65

* * *

assayedSystem: rat B1R (bradykinin receptor 1) (Rattus norvegicus, UniProt P97583)
Construct: expressed in transfected cells; host or cells: CHO K1 cells
Sequence (P97583 whole entry): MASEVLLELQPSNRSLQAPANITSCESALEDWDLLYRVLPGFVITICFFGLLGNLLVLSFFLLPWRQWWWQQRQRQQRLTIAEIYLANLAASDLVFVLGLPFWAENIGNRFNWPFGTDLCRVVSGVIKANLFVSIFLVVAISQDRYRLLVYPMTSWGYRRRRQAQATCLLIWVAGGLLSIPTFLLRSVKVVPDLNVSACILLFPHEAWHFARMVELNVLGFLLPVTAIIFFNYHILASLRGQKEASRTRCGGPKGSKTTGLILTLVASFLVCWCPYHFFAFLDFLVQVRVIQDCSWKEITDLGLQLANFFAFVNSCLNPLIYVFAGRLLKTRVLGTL
assayOverview: FLIPR Ca2+ assay (Fluo-4) on CHO K1 cells stably transfected with the B1R gene of the rat (rB1R cells): % inhibition at 10 μM / IC50, agonist Des-Arg9-bradykinin
Assay type: cell-based
conditionDetails: CHO-K1, rat B1R
Description: The agonistic or antagonistic action of substances can be quantified on the bradykinin receptor 1 (B1R) of the human and rat species with ectopically expressing cell lines (CHO K1 cells) and with the aid of a Ca^2+-sensitive dyestuff (Fluo-4) in a fluorescent imaging plate reader (FLIPR). […] The agonistic or antagonistic action of substances can be determined on the bradykinin receptor 1 (B1R) of the human and rat species with the following assay. […]
reportedEndpoint: inhibition at 10 µM (%)
Please give a number only; it is taken to be in %.

Cn1ccc2c(S(=O)(=O)N3CCC4(CCN(C(=O)c5ccc6c(c5)C(NC(=O)c5ccccc5Cl)CC6)CC4)CC3)cccc21 (centres unmarked)	65
O=C(c1ccc2c(c1)C(NS(=O)(=O)c1c(Cl)cccc1Cl)CC2)N1CCC2(CCN(c3ccncc3)CC2)C1 (centres unmarked)	92
CC1(C)CC(NS(=O)(=O)CCc2ccccc2Cl)c2cc(C(=O)N3CCC4(CC3)CCN(c3ccncc3)CC4)ccc21 (centres unmarked)	100
CN(C1CCc2ccc(C(=O)N3CCC4(CC3)CCN(c3ccncc3)CC4)cc21)S(=O)(=O)Cc1ccccc1C(F)(F)F (centres unmarked)	101
O=C(c1ccc2c(c1)[C@H](NS(=O)(=O)c1ccccc1Cl)CCC2)N1CCC2(CCN(c3ccncc3)CC2)C1	105

Name the recorded inhibition at 10 µM for O=C(/C=C/c1ccccc1Cl)NC1CCc2ccc(C(=O)N3CCC4(CC3)CCN(c3ccncc3)C4)cc21 (centres unmarked) .
68

Quick one: inhibition at 10 µM for Cc1nn(C)c(C)c1CN1CCC2(CC1)CCN(C(=O)c1ccc3c(c1)C(NC(=O)c1cc(C(F)(F)F)ccc1Cl)CC3)C2 (centres unmarked) ?
51
